Molecular target: T1, Recombinant human CD5 extracellular domain (CD5-ECD) (human, UniProt P06127 25-372)
T1 construct: In-house protein made as CD5-ECD - TEV site - hGH fusion; CD5-ECD isolated by TEV cleavage and nickel column; also called CD5-ECD protein
T1 sequence: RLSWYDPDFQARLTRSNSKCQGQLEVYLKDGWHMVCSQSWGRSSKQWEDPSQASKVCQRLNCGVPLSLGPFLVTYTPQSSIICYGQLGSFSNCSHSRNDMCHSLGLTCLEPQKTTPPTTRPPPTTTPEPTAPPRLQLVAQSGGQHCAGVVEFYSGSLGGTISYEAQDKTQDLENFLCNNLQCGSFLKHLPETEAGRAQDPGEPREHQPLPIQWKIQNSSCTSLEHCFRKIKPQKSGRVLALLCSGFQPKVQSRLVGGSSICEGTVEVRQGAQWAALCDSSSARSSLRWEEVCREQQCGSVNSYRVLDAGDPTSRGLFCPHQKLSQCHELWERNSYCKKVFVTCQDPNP
Experiment: SPR (Biacore 2000), antibody captured by anti-human Fc, CD5-ECD in solution, 1:1 fit;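 also: CM5 chip, binding curves at four CD5-ECD concentrations fitted globally, with the signal of a non-CD5-binding control antibody subtracted as reference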
Returns one of condition met or condition not met; condition met when kon is >= 100000 M⁻¹ s⁻¹.

binder	answer label
Anti-CD5 antibody 15 (8E24) (antibody, human IgG1, V domains shown, also called Ab15; Clone 15) VH: QVTLKESGAELVRPGASVKLSCKASGYSFTSYWMNWVKQRPGQGLEWIGMIHPSDSETRLNQKFKDKATLTVDKSSSTAYMQLSSPTSEDSAVYYCARWGDHDDAMDF VL: DIVLTQSPASLSASVGESVTITCRPSENIYGYFAWYQQRQGKSPQLLVYNAKTLAEGVPSRFSGSGSGTHFSLKINSLQPEDFGTYYCQHHYGTPFT	condition not met
Anti-CD5 antibody 14 (7P9) (antibody, human IgG1, V domains shown, also called Ab14; Clone 14) VH: EVQLKESGAELVKPGASVKLSCTASGFNIKDTYMHWVKQRPEQGLEWIGRIDPANGNTKYDPKFQGKATITADTSSNTAYLQLSSLTSEDTAVYYCAREENYYGTYYFDY VL: NIVLTQSPASLAASVGETVTITCRASENIYYNLAWYQQKQGKSPQLLIYNANSLEDGVPSRFSGSGSGTQYSMKINSMQPEDTATYFCKQVYDVPFT	condition met
Anti-CD5 antibody 31 (3P16) (antibody, human IgG1, V domains shown, also called Ab31; Clone 31) VH: EVQLKESGPELKKPGETVKISCMTSGYMFTNHGMNWVKQAPGKGLKWMGWINTYTGEPTYGDGFKGRFVFSLETSASTAYLQINNLKNEDTATYFCARRVATYFDV VL: NIVLTQSPAILSVSPGERVSFSCRASQRIGTSMNWYQQRTNGSPRLLIKSASESISGIPSRFSGSGSGTDFTLSINSVESDDVADYYCQQSNSWPLT	condition not met

IN: Is reported kon greater than or equal to 100000 M⁻¹ s⁻¹ here: Anti-CD5 antibody 34 (5O24) (antibody, human IgG1, V domains shown, also called Ab34; Clone 34) VH: EVKLVESGAELVRSGASVKLSCAASGFNIKDYYIHWVKQRPEQGLEWIGWIDPENGRTEYAPKFQGKATMTADTSSNTAYLQLSSLTSEDTAVYYCNNGNYVRHYYFDY VL: DVVLTQSPAILSASPGEKVTMTCRAISSVSYMHWYQQKPGSSPKPWIYATSNLASGVPARFSGSGSGTSYSLTISRVEAEDAATYYCQQWSSNPRT
OUT: condition not met
